Values were extracted from ChEMBL document CHEMBL2331230.

System: SW982
PROTOCOL DETAILS: Cytotoxicity against human SW982 cells assessed as growth inhibition after 72 hrs by MTT assay
Format: functional, cell-based
COND: SW982, 72 h
MEASURE NAME: IC50

Solved cases (5 shown):
[
  {
    "COMPOUND": "COc1cc(OC)c(-c2oc3ccc(O)cc3c(=O)c2O)cc1OC",
    "IC50": "> 150 µM"
  },
  {
    "COMPOUND": "CC=Cc1cc(OC)c(OC)cc1OC [CIS-ASARONE]",
    "IC50": "> 150 µM"
  },
  {
    "COMPOUND": "COc1cc(OC)c(OC)cc1/C=C/C(=O)c1ccc(Br)cc1",
    "IC50": "38.2 µM"
  },
  {
    "COMPOUND": "COc1cc(OC)c(C(=O)/C=C/c2cc(OC)c(OC)cc2OC)c(OC)c1",
    "IC50": "96.5 µM"
  },
  {
    "COMPOUND": "COc1cc(OC)c(OC)cc1/C=C/C(=O)c1cc(OC(C)=O)ccc1OC(C)=O",
    "IC50": "78.5 µM"
  }
]

query: Tell me its IC50 given "COc1ccc(C(=O)/C=C/c2cc(OC)c(OC)cc2OC)cc1" as the entry.
result: 60.5 µM

query: Tell me its IC50 given "COc1cc(OC)c(OC)cc1/C=C/C(=O)c1ccccc1" as the entry.
result: > 150 µM

query: Tell me its IC50 given "COc1cc(OC)c(OC)cc1/C=C/C(=O)c1cc(O)ccc1O" as the entry.
result: > 150 µM

query: Tell me its IC50 given "COc1cc(OC)c(OC)cc1/C=C/C(=O)c1ccc(O)cc1O" as the entry.
result: 32.4 µM

query: Tell me its IC50 given COc1cc(OC)c(C2CC(=O)c3cc(O)ccc3O2)cc1OC (configuration not stated) as the entry.
result: > 150 µM

query: Tell me its IC50 given "COC(=O)[C@]1(C)CC[C@]2(C)CC[C@]3(C)C4=CC=C5C(=CC(=O)C(O)=C5C)[C@]4(C)CC[C@@]3(C)[C@@H]2C1" as the entry.
result: 1.28 µM

query: Tell me its IC50 given "COc1cc(OC)c(-c2cc(=O)c3cc(O)ccc3o2)cc1OC" as the entry.
result: > 150 µM

query: Tell me its IC50 given "COc1cc(OC)c(OC)cc1/C=C/C(=O)c1ccc(N2CCOCC2)cc1" as the entry.
result: > 150 µM

query: Tell me its IC50 given "COc1cc(OC)c(OC)cc1/C=C/C(=O)c1ccc([N+](=O)[O-])cc1" as the entry.
result: > 150 µM

query: Tell me its IC50 given "COc1cc(OC)c(-c2oc3ccc(Cl)cc3c(=O)c2O)cc1OC" as the entry.
result: > 150 µM

query: Tell me its IC50 given "COc1cc(OC)c(OC)cc1/C=C/C(=O)c1ccc(-n2ccnc2)cc1" as the entry.
result: > 150 µM

query: Tell me its IC50 given "COc1cc(OC)c(OC)cc1/C=C/C(=O)c1ccc(Cl)cc1" as the entry.
result: 58.5 µM

query: Tell me its IC50 given "COc1cc(C(=O)/C=C/c2cc(OC)c(OC)cc2OC)ccc1O" as the entry.
result: > 150 µM

query: Tell me its IC50 given "COc1cc(OC)c(OC)cc1/C=C/C(=O)c1ccc(C)cc1" as the entry.
result: 81.1 µM

query: Tell me its IC50 given "COc1cc(OC)c(OC)cc1/C=C/C(=O)c1cc(OCc2ccccc2)cc(OCc2ccccc2)c1" as the entry.
result: 69.9 µM

query: Tell me its IC50 given "COc1cc(OC)c(-c2cc(=O)c3ccc(O)cc3o2)cc1OC" as the entry.
result: > 150 µM

query: Tell me its IC50 given "COc1cc(OC)c(OC)cc1/C=C/C(=O)c1cccc(C(F)(F)F)c1" as the entry.
result: > 150 µM
